- experimental.protocol: Study KAR5585-101 Part 1 (SAD): plasma pharmacokinetics after a single oral dose of KAR5585, fasting and fed (incl. dose proportionality and food effect)
- assay.conditions: human, plasma, po, median tmax, range across cohorts, single oral 100-2000 mg KAR5585, fasting cohorts
measure.name: Tmax

1) CCOC(=O)[C@@H]1CC2(CCN(c3cc(O[C@H](c4ccc(Cl)cc4-c4ccccc4)C(F)(F)F)nc(N)n3)CC2)CN1 ... 1.5 to 3 h

Would you kindly look at the next entry?
Query `Nc1nc(O[C@H](c2ccc(Cl)cc2-c2ccccc2)C(F)(F)F)cc(N2CCC3(CC2)CN[C@H](C(=O)O)C3)n1` yields Tmax of 3 to 6 h

====

- experimental.protocol: Study KAR5585-101 Part 1 (SAD): plasma pharmacokinetics after a single oral dose of KAR5585, fasting and fed (incl. dose proportionality and food effect)
- assay.conditions: human, plasma, po, 1200 mg, t1 (t½, apparent terminal half-life), 1200 mg KAR5585 single oral, fasted, Cohort 5; Geo. Mean
measure.name: half-life (h)
Give bare numbers, in h.

Query `CCOC(=O)[C@@H]1CC2(CCN(c3cc(O[C@H](c4ccc(Cl)cc4-c4ccccc4)C(F)(F)F)nc(N)n3)CC2)CN1` yields half-life of 3.4

====

- experimental.protocol: Study KAR5585-101 Part 1 (SAD): plasma pharmacokinetics after a single oral dose of KAR5585, fasting and fed (incl. dose proportionality and food effect)
- assay.conditions: human, plasma, po, 200 mg, AUC0-∞, KAR5417 after 200 mg KAR5585 single oral, fasted, Cohort 2; Mean
measure.name: AUC(0-inf) (ng·h/mL)
Give bare numbers, in ng·h/mL.

Query Nc1nc(O[C@H](c2ccc(Cl)cc2-c2ccccc2)C(F)(F)F)cc(N2CCC3(CC2)CN[C@H](C(=O)O)C3)n1 [KAR5417] yields AUC(0-inf) of 1230

====

- experimental.protocol: Study KAR5585-101 Part 1 (SAD): plasma pharmacokinetics after a single oral dose of KAR5585, fasting and fed (incl. dose proportionality and food effect)
- assay.conditions: human, plasma, po, 1200 mg, AUC0-∞, 1200 mg KAR5585 single oral, fasted, Cohort 5; Geo. Mean
measure.name: AUC(0-inf) (µg·h/mL)
Numbers only, in µg·h/mL.

Query `CCOC(=O)[C@@H]1CC2(CCN(c3cc(O[C@H](c4ccc(Cl)cc4-c4ccccc4)C(F)(F)F)nc(N)n3)CC2)CN1` yields AUC(0-inf) of 0.406

====

- experimental.protocol: Part 1 (SAD): urine pharmacokinetics (amount excreted, renal clearance) after a single oral dose of KAR5585
- Format: in vivo, human
- assay.conditions: human, urine and plasma, po, 400 mg, KAR5417; 400 mg (fed) KAR5585 single oral dose; mean; read-out: CLR (converted)
measure.name: CL renal

Query `Nc1nc(O[C@H](c2ccc(Cl)cc2-c2ccccc2)C(F)(F)F)cc(N2CCC3(CC2)CN[C@H](C(=O)O)C3)n1` yields CL renal of 3.18 mL/min

====

- experimental.protocol: Part 1 (SAD): urine pharmacokinetics (amount excreted, renal clearance) after a single oral dose of KAR5585
- Assay type: in vivo, human
- assay.conditions: human, urine and plasma, po, 1200 mg, KAR5417; 1200 mg KAR5585 single oral dose; mean; read-out: CLR (converted)
measure.name: CL renal

Query `Nc1nc(O[C@H](c2ccc(Cl)cc2-c2ccccc2)C(F)(F)F)cc(N2CCC3(CC2)CN[C@H](C(=O)O)C3)n1` yields CL renal of 2.62 mL/min

Reference source: patent US20240041877A1
